Data provenance: PubChem BioAssay (EPA / NIEHS)

Assay: LTEA_HepaRG_LDH_cytotoxicity: Cytotoxicity Assessment in the Life Technologies and Expression Analysis (LTEA) Assay (AID 2283563)
Active and inactive are the calls of the source. Rule for the calls: active = hit-call score of the fitted dose curve at least 0.9, where 1 is the maximum; inconclusive = response in the unintended direction; inactive = score below 0.9.
Reply using exactly one outcome from active, inactive

Observe how each entry below is paired with its result.
{"compound": "COC(=O)C(C)Oc1ccc(Oc2ccc(Cl)cc2Cl)cc1 (stereo not given)", "category": "inactive"}
{"compound": "CC1COC(Cn2cncn2)(c2ccc(Oc3ccc(Cl)cc3)cc2Cl)O1 (stereo not given)", "category": "active"}
{"compound": "CCOP(=S)(OCC)SCn1c(=O)oc2cc(Cl)ccc21", "category": "inactive"}
{"compound": "CN(C)C(=S)SSC(=S)N(C)C", "category": "inactive"}
{"compound": "N#Cc1cc(Br)c(O)c(Br)c1", "category": "active"}
{"compound": "CCCC1COC(Cn2cncn2)(c2ccc(Cl)cc2Cl)O1 (stereo not given)", "category": "active"}

Entry CCNc1nc(Cl)nc(NCC)n1 : call = ? inactive

Also need N#CC(CCc1ccc(Cl)cc1)(Cn1cncn1)c1ccccc1 (stereo not given) , thanks. active

Also need CCCCC(CC)COC(=O)c1ccccc1C(=O)OCC(CC)CCCC (stereo not given) , thanks. inactive

Also need CCOc1cc(Oc2ccc(C(F)(F)F)cc2Cl)ccc1[N+](=O)[O-] , thanks. inactive
